- method_summary: Equilibrium solubility of 4-iodo-3-nitrobenzamide, overnight at 25° C., measured by HPLC
- Format: physicochemical
- reported_conditions: 5% DMA/25% Solutol HS-15 in purified water, 25 °C, aqueous with cosolvent or surfactant or cyclodextrin, thermodynamic from solid, 5% DMA/25% Solutol HS-15, 25° C.; read-out: Solubility

{"compound": "NC(=O)c1ccc(I)c([N+](=O)[O-])c1 [BA, 4-iodo-3-nitrobenzamide]", "scale_unit": "µg/mL", "solubility": 8320}

====

- method_summary: Equilibrium solubility of 4-iodo-3-nitrobenzamide, overnight at 25° C., measured by HPLC
- Format: physicochemical
- reported_conditions: 0.01 M HCl, 25 °C, pH 2, simulated gastric fluid, thermodynamic from solid, 0.01 M HCl (pH 2), 25° C.; read-out: Solubility
- Description: Excess 4-iodo-3-nitrobenzamide (“BA”) was equilibrated overnight (>16 hr) at 25° C. in purified water, 0.01M HCl (pH2), 0.01M NaOH ([…]), and 0.9% NaCl. Following dilution, the solubility of the drug was measured by HPLC. […] Excess 4-iodo-3-nitrobenzamide was equilibrated overnight (>16 hr) at 25° C. in solutions in purified water containing mixtures of solubilizers. Following dilution, the solubility of the drug was measured by HPLC.

{"molecule": "NC(=O)c1ccc(I)c([N+](=O)[O-])c1 [BA, 4-iodo-3-nitrobenzamide]", "solubility / µg/mL": 179}

====

- method_summary: Saturated solubility of BA in solvents, 25° C., absorbance at 320 nm
- Assay type: physicochemical
- reported_conditions: solvent (liquid filled capsule vehicle), 25 °C, organic solvent or mixture, thermodynamic from solid, 25% w/v Solutol in PEG 400, 25° C.; read-out: BA Solubility
readout_name: solubility (mg/mL)

{"compound": "NC(=O)c1ccc(I)c([N+](=O)[O-])c1 [BA, 4-iodo-3-nitrobenzamide]", "observed_measurement": 224}

====

- method_summary: Equilibrium solubility of 4-iodo-3-nitrobenzamide, overnight at 25° C., measured by HPLC
- Format: physicochemical
- reported_conditions: 100% DMA (N,N-dimethylacetamide), 25 °C, organic solvent or mixture, thermodynamic from solid, DMA 100%, 25° C.; read-out: Solubility
readout_name: solubility (mg/mL)

{"compound": "NC(=O)c1ccc(I)c([N+](=O)[O-])c1 [BA, 4-iodo-3-nitrobenzamide]", "readout_name": "solubility", "observed_measurement": 71.5}

====

- method_summary: Equilibrium solubility of 4-iodo-3-nitrobenzamide, overnight at 25° C., measured by HPLC
- Format: physicochemical
- reported_conditions: 5% Polysorbate 80/5% glycofurol in purified water, 25 °C, aqueous with cosolvent or surfactant or cyclodextrin, thermodynamic from solid, 5% Polysorbate 80/5% glycofurol, 25° C.; read-out: Solubility
readout_name: solubility

{"compound": "NC(=O)c1ccc(I)c([N+](=O)[O-])c1 [BA, 4-iodo-3-nitrobenzamide]", "observed_measurement": "2390 µg/mL"}

====

- method_summary: Saturated solubility of BA in solvents, 25° C., absorbance at 320 nm
- Type: physicochemical
- reported_conditions: solvent (liquid filled capsule vehicle), 25 °C, oil or lipid, thermodynamic from solid, 40% DMA in Capmul, 25° C.; read-out: BA Solubility
readout_name: solubility (mg/mL)

{"compound": "NC(=O)c1ccc(I)c([N+](=O)[O-])c1 [BA, 4-iodo-3-nitrobenzamide]", "scale_unit": "mg/mL", "observed_measurement": 276}

====

- method_summary: Equilibrium solubility of 4-iodo-3-nitrobenzamide, overnight at 25° C., measured by HPLC
- Assay type: physicochemical
- reported_conditions: 50% PEG 400 in purified water, 25 °C, aqueous with cosolvent or surfactant or cyclodextrin, thermodynamic from solid, PEG 400 50%, 25° C.; read-out: Solubility
readout_name: solubility (µg/mL)

{"molecule": "NC(=O)c1ccc(I)c([N+](=O)[O-])c1 [BA, 4-iodo-3-nitrobenzamide]", "readout_name": "solubility", "scale_unit": "µg/mL", "observed_measurement": 7660}

====

- method_summary: Equilibrium solubility of 4-iodo-3-nitrobenzamide, overnight at 25° C., measured by HPLC
- Format: physicochemical
- reported_conditions: 5% DMA/5% EtOH/40% PEG 400 in purified water, 25 °C, aqueous with cosolvent or surfactant or cyclodextrin, thermodynamic from solid, 5% DMA/5% EtOH/40% PEG 400, 25° C.; read-out: Solubility
readout_name: solubility

{"molecule": "NC(=O)c1ccc(I)c([N+](=O)[O-])c1 [BA, 4-iodo-3-nitrobenzamide]", "readout_name": "solubility", "observed_measurement": "8010 µg/mL"}

====

- method_summary: Saturated solubility of BA in solvents, 25° C., absorbance at 320 nm
- Assay type: physicochemical
- reported_conditions: solvent (liquid filled capsule vehicle), 25 °C, oil or lipid, thermodynamic from solid, 40% v/v Transcutol in Capmul, 25° C.; read-out: BA Solubility

{"molecule": "NC(=O)c1ccc(I)c([N+](=O)[O-])c1 [BA, 4-iodo-3-nitrobenzamide]", "solubility, mg/mL": 73}

====

- method_summary: Equilibrium solubility of 4-iodo-3-nitrobenzamide, overnight at 25° C., measured by HPLC
- Assay type: physicochemical
- reported_conditions: 100% glycerin formal, 25 °C, organic solvent or mixture, thermodynamic from solid, Glycerin Formal 100%, 25° C.; read-out: Solubility
- Experimental: Excess 4-iodo-3-nitrobenzamide (“BA”) was equilibrated overnight (>16 hr) at 25° C. in purified water, 0.01M HCl (pH2), 0.01M NaOH ([…]), and 0.9% NaCl. Following dilution, the solubility of the drug was measured by HPLC. […] Excess 4-iodo-3-nitrobenzamide was equilibrated overnight (>16 hr) at 25° C. in solutions in purified water containing mixtures of solubilizers. Following dilution, the solubility of the drug was measured by HPLC.
readout_name: solubility

{"compound": "NC(=O)c1ccc(I)c([N+](=O)[O-])c1 [BA, 4-iodo-3-nitrobenzamide]", "observed_measurement": "15.1 mg/mL"}

====

- method_summary: Saturated solubility of BA in solvents, 25° C., absorbance at 320 nm
- Assay type: physicochemical
- reported_conditions: solvent (liquid filled capsule vehicle), 25 °C, organic solvent or mixture, thermodynamic from solid, 100% Transcutol, 25° C.; read-out: BA Solubility

{"molecule": "NC(=O)c1ccc(I)c([N+](=O)[O-])c1 [BA, 4-iodo-3-nitrobenzamide]", "solubility (mg/mL)": 192}

====

- method_summary: Equilibrium solubility of 4-iodo-3-nitrobenzamide, overnight at 25° C., measured by HPLC
- Assay type: physicochemical
- reported_conditions: 10% Poloxamer 118 in purified water, 25 °C, aqueous with cosolvent or surfactant or cyclodextrin, thermodynamic from solid, Poloxamer 118 10%, 25° C.; read-out: Solubility

{"molecule": "NC(=O)c1ccc(I)c([N+](=O)[O-])c1 [BA, 4-iodo-3-nitrobenzamide]", "scale_unit": "µg/mL", "solubility": 430}

====

- method_summary: Equilibrium solubility of 4-iodo-3-nitrobenzamide, overnight at 25° C., measured by HPLC
- Type: physicochemical
- reported_conditions: 25% SBEBCD in purified water, 25 °C, aqueous with cosolvent or surfactant or cyclodextrin, thermodynamic from solid, SBEBCD 25% in purified water, 25° C.; read-out: Solubility

{"compound": "NC(=O)c1ccc(I)c([N+](=O)[O-])c1 [BA, 4-iodo-3-nitrobenzamide]", "solubility (mg/mL)": 11}

====

- method_summary: Equilibrium solubility of 4-iodo-3-nitrobenzamide, overnight at 25° C., measured by HPLC
- Type: physicochemical
- reported_conditions: 20% HPBCD in purified water, 25 °C, aqueous with cosolvent or surfactant or cyclodextrin, thermodynamic from solid, HPBCD 20% in purified water, 25° C.; read-out: Solubility

{"compound": "NC(=O)c1ccc(I)c([N+](=O)[O-])c1 [BA, 4-iodo-3-nitrobenzamide]", "solubility / µg/mL": 9960}

====

- method_summary: Equilibrium solubility of 4-iodo-3-nitrobenzamide, overnight at 25° C., measured by HPLC
- Format: physicochemical
- reported_conditions: 100% Polysorbate 80, 25 °C, organic solvent or mixture, thermodynamic from solid, Polysorbate 80 100%, 25° C.; read-out: Solubility

{"molecule": "NC(=O)c1ccc(I)c([N+](=O)[O-])c1 [BA, 4-iodo-3-nitrobenzamide]", "solubility (mg/mL)": 16.9}

====

- method_summary: Saturated solubility of BA in solvents, 25° C., absorbance at 320 nm
- Assay type: physicochemical
- reported_conditions: solvent (liquid filled capsule vehicle), 25 °C, oil or lipid, thermodynamic from solid, 10% v/v DMA in Capmul, 25° C.; read-out: BA Solubility
readout_name: solubility (mg/mL)

{"compound": "NC(=O)c1ccc(I)c([N+](=O)[O-])c1 [BA, 4-iodo-3-nitrobenzamide]", "readout_name": "solubility", "observed_measurement": 57}

====

- method_summary: Equilibrium solubility of 4-iodo-3-nitrobenzamide, overnight at 25° C., measured by HPLC
- Type: physicochemical
- reported_conditions: 100% Polysorbate 20, 25 °C, organic solvent or mixture, thermodynamic from solid, Polysorbate 20 100%, 25° C.; read-out: Solubility

{"molecule": "NC(=O)c1ccc(I)c([N+](=O)[O-])c1 [BA, 4-iodo-3-nitrobenzamide]", "solubility": "10.8 mg/mL"}
